test: growth suppression of PTEN-deleted HCT116, pilot screen, cell-based, HCT116 clonal line, CellTiter-Glo (AID 824); conditions: 60 h, at 10 µM, hits give low values;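 note: 0% = 20 µM Hyamine control and 100% = vehicle cell control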
Results filed as inconclusive are left out.
endpoint.name: viability (%)
One number for each entry, in %.

Previously resolved entries follow.
O=C(c1ccco1)N1CCN(S(=O)(=O)c2cccc3nsnc23)CC1; 99.7
CC1CCCCC1NC(=O)C1CCN(C(=O)c2sccc2-n2cccc2)CC1 (stereo unspecified); 94.8
Cc1cccc2sc(NC(=O)c3ccc(Cl)s3)nc12; 56

Here are 3 compounds. What values of viability were reported for them?
1. Cn1c(C(=O)N2CCN(Cc3ccc4c(c3)OCO4)CC2)cc2c(=O)n(C)c3ccccc3c21
2. CN1CCN(Cc2ccc(-c3ccc(Cl)cc3)o2)CC1
3. Cc1cccc(N2CCN(S(C)(=O)=O)CC2)c1C

[71.9, 102, 95.3]

The measured values listed here are drawn from PubChem BioAssay.
